- target of assay: ACAT1 C413 (P24752) (Homo sapiens, UniProt P24752)
- Sequence (P24752 34-427): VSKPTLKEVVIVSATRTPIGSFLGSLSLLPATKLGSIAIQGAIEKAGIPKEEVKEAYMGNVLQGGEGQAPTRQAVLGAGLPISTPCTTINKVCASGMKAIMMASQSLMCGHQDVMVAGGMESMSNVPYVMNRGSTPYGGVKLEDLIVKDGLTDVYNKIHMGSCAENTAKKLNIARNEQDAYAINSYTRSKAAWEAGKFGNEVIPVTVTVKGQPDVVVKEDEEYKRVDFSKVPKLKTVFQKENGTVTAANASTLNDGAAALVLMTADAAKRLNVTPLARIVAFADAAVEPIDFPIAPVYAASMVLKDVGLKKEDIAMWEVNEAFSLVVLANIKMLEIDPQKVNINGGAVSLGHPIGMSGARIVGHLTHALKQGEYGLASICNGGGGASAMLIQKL
- assay summary: Competitive isoTOP-ABPP, cell lysates
- Assay type: binding
- assay conditions: 500 μm, in-vitro_ramos
Where isoTOP-ABPP reactivity ratio, P24752_C413 equals or exceeds 1, the correct label is 1; where it does not, the label is -1.

- C=CC(=O)Nc1cc(F)c(N2CCN(C(=O)OC(C)(C)C)CC2)c(F)c1: 1
- O=C(CCl)Nc1ccccc1C1CCCCCC1: 1
- Cc1ccc(C=C(C#N)C(=O)NCCN2CCOCC2)cc1: -1
- CC(C)(C)c1cc(NC(=O)CCl)on1: 1
- O=C(CCl)N(Cc1ccc(F)cc1)C12CC3CC(CC(C3)C1)C2: 1

Could you verify whether the entry CCN(CC)c1ccc(S(N)(=O)=O)cc1NC(=O)CCl shows isoTOP-ABPP reactivity ratio, P24752_C413 of no less than 1?
1

Would you say C=CC(=O)N1CCC(c2noc3ccc(F)cc23)CC1 shows isoTOP-ABPP reactivity ratio, P24752_C413 at minimum 1?
-1

---

- target of assay: cysteines in MDA-MB-231 and Ramos cells (Homo sapiens)
- assay summary: Competitive isoTOP-ABPP in situ (fragment-treated cells)
- Assay type: cell-based
- assay conditions: 200 μM, insitu, 231
Can you tell me isoTOP-ABPP ratio Q9BXW7_C392 for the items I'm about to list?
Answers are plain numbers.

* CC(C)CCOCCNC(=O)CCl [compound 27] | 1.3
* CC1CCc2ccccc2N1C(=O)CCl (stereo not shown) [compound 45] | 4.9

Take each entry in turn and give its isoTOP-ABPP ratio Q9BXW7_C392.
1. C=CC(=O)Nc1cc(F)c(N2CCN(C(=O)OC(C)(C)C)CC2)c(F)c1 [compound 38]
2. O=C(CCl)Nc1cccc2ncccc12 [compound 51]
3. COc1ccccc1OCCNC(=O)CCl [compound 28]
4. O=C(CCl)N1CCN(S(=O)(=O)c2ccccc2F)CC1 [compound 10]
5. O=C(CCl)NCCc1c[nH]c2ccccc12 [compound 13]
6. O=C(CCl)NC(=O)NC12CC3CC(CC(C3)C1)C2 [compound 12]

[0.8, 1.1, 1.0, 20.0, 2.0, 5.1]

Would you mind giving isoTOP-ABPP ratio Q9BXW7_C392 for every molecule in the list below?
1. Cc1ccc(C=C(C#N)C(=O)NCCN2CCOCC2)cc1 [compound 41]
2. O=C(CCl)NC12CC3CC(CC(C3)C1)C2 [compound 21]

1.0
1.6

---

- target of assay: cysteines in MDA-MB-231 and Ramos cells (Homo sapiens, UniProt Q13428)
- Sequence (Q13428 whole entry, the tested form may be a part): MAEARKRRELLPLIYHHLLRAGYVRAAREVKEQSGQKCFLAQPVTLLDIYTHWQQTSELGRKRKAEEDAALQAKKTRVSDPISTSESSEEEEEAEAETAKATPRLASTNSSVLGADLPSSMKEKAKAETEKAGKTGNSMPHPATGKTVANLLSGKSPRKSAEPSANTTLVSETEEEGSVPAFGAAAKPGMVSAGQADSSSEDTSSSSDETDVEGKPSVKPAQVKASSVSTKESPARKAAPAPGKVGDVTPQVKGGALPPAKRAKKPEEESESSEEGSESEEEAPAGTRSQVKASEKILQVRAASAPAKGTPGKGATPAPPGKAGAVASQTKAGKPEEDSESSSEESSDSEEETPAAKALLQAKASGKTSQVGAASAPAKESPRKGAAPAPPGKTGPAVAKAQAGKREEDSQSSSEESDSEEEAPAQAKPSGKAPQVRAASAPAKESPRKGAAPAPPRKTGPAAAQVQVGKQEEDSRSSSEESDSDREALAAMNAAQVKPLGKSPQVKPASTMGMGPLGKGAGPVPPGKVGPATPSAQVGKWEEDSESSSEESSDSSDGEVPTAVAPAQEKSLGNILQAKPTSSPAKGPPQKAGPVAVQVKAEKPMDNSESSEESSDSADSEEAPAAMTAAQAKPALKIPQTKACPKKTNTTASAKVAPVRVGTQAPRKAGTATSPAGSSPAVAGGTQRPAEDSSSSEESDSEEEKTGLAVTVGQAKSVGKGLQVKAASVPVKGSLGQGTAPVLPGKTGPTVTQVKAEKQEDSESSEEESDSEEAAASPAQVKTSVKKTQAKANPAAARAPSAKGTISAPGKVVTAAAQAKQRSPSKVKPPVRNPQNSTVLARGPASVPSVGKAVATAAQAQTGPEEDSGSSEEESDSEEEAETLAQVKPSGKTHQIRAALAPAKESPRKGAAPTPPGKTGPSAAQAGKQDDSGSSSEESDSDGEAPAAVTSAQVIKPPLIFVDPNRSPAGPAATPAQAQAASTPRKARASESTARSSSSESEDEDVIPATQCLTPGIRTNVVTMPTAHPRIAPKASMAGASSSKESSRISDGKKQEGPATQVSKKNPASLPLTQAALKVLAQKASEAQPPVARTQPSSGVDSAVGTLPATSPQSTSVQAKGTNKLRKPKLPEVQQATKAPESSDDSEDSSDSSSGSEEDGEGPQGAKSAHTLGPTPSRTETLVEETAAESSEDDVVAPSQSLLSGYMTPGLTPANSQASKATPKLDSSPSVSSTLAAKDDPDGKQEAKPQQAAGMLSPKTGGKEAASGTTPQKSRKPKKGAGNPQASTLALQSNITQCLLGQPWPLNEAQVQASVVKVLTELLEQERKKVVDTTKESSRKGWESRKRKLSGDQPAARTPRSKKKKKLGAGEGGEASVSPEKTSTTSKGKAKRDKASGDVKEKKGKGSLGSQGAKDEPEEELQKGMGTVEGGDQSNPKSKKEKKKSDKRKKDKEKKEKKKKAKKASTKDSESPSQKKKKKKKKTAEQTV
- assay summary: Competitive isoTOP-ABPP in situ (fragment-treated cells)
- Format: cell-based
- assay conditions: 200 μM, insitu, 231
endpoint name: isoTOP-ABPP ratio Q13428_C1298
Give bare numbers.

// solved cases for isoTOP-ABPP ratio Q13428_C1298 follow
* CC1CCc2ccccc2N1C(=O)CCl (stereo not shown) [compound 45] | 4.7
* Cc1ccc(C=C(C#N)C(=O)NCCN2CCOCC2)cc1 [compound 41] | 1.0
* C=CC(=O)Nc1cc(F)c(N2CCN(C(=O)OC(C)(C)C)CC2)c(F)c1 [compound 38] | 2.0

// each listed compound needs a value for isoTOP-ABPP ratio Q13428_C1298
1. COc1ccccc1OCCNC(=O)CCl [compound 28]
2. O=C(CCl)N1CCN(S(=O)(=O)c2ccccc2F)CC1 [compound 10]
3. O=C(CCl)NC(=O)NC12CC3CC(CC(C3)C1)C2 [compound 12]
4. CC(C)CCOCCNC(=O)CCl [compound 27]

0.9
5.9
20.0
1.0

---

- target of assay: IDH1 C269 (O75874) (Homo sapiens)
- Sequence (O75874 whole entry): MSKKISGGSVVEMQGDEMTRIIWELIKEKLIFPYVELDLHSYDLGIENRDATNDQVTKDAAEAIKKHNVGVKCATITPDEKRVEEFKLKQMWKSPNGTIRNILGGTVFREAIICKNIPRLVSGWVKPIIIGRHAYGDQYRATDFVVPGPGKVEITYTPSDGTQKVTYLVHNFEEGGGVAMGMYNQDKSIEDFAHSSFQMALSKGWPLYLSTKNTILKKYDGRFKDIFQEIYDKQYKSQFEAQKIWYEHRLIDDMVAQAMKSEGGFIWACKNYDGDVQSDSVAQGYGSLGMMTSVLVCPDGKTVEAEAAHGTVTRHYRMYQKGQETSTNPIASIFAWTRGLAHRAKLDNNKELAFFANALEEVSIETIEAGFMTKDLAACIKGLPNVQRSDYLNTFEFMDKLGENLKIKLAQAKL
- assay summary: Competitive isoTOP-ABPP, cell lysates
- Assay type: binding
- assay conditions: 500 μm in-vitro ramos_231
- Procedure: TEV digests were pressure loaded onto a 250 μm (inner diameter) fused silica capillary column packed with C18 resin (Aqua 5 μm, Phenomenex). The samples were analyzed by multidimensional liquid chromatography tandem mass spectrometry (MudPIT), using an LTQ-Velos Orbitrap mass spectrometer (Thermo Scientific) coupled to an Agilent 1200-series quaternary pump. […]
Response field label: string, one of label 1 (isoTOP-ABPP ratio (reactivity profile), O75874_C269 strictly below 1) or label 0.

• O=C(CCl)NC12CC3CC(CC(C3)C1)C2 [compound 21] = label 0
• COc1ccccc1OCCNC(=O)CCl [compound 28] = label 0
• O=C(CCl)N1CCN(CC(=O)N2CCOCC2)CC1 [compound 29] = label 1

Next:
API: query returns whether the compound falls strictly under 1 in isoTOP-ABPP ratio (reactivity profile), O75874_C269. Query: N#C/C(=C\c1cc(C(F)(F)F)cc(C(F)(F)F)c1)C(N)=O [compound 23]
label 1

---

- target of assay: cysteines in MDA-MB-231 and Ramos cells (Homo sapiens, UniProt P12268)
- assay summary: Competitive isoTOP-ABPP in situ (fragment-treated cells)
- Type: cell-based
- assay conditions: 200 μM, insitu, 231
endpoint name: isoTOP-ABPP ratio P12268_C331
Give bare numbers.

// known answers, use as guide
- C=CC(=O)N(Cc1cccnc1)c1cc(C(F)(F)F)cc(C(F)(F)F)c1 [compound 31]: 1.0
- COc1ccccc1OCCNC(=O)CCl [compound 28]: 0.8
- CC1CCc2ccccc2N1C(=O)CCl (stereo not shown) [compound 45]: 4.1
- O=C(CCl)NC12CC3CC(CC(C3)C1)C2 [compound 21]: 0.8
- C=CC(=O)Nc1cc(F)c(N2CCN(C(=O)OC(C)(C)C)CC2)c(F)c1 [compound 38]: 1.3

Kindly give each listed record's isoTOP-ABPP ratio P12268_C331.
1. Cc1ccc(C=C(C#N)C(=O)NCCN2CCOCC2)cc1 [compound 41]
2. CC(C)CCOCCNC(=O)CCl [compound 27]

1. 0.8
2. 0.7

---

- target of assay: cysteines in MDA-MB-231 and Ramos cells (Homo sapiens, UniProt Q99439)
- Sequence (Q99439 1-309): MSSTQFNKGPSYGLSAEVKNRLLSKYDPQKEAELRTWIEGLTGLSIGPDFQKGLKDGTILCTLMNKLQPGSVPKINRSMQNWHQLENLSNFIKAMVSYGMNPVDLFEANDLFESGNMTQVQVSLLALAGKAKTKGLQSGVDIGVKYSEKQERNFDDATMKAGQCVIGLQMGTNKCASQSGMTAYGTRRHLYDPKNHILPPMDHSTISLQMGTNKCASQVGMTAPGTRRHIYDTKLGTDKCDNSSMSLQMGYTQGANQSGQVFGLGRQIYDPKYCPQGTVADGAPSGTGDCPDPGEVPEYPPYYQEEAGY
- assay summary: Competitive isoTOP-ABPP in situ (fragment-treated cells)
- Format: cell-based
- assay conditions: 200 μM, insitu, ramos
endpoint name: isoTOP-ABPP ratio Q99439_C164
Give bare numbers.

Examples with their reported isoTOP-ABPP ratio Q99439_C164 follow.
* O=C(CCl)NCCc1c[nH]c2ccccc12 [compound 13] | 1.3
* O=C(CCl)N1CCN(CC(=O)N2CCOCC2)CC1 [compound 29] | 1.0
* C=CC(=O)N(Cc1cccnc1)c1cc(C(F)(F)F)cc(C(F)(F)F)c1 [compound 31] | 1.3

Next molecule, please.
What measured isoTOP-ABPP ratio Q99439_C164 goes with O=C(CCl)N1CCN(S(=O)(=O)c2ccccc2F)CC1 [compound 10] ?
1.3

---

- target of assay: cysteines in MDA-MB-231 and Ramos cells (Homo sapiens)
- assay summary: Competitive isoTOP-ABPP in situ (fragment-treated cells)
- Format: cell-based
- assay conditions: 200 μM, insitu, ramos
For each record, write down the corresponding isoTOP-ABPP ratio O60610_C1227.

Please review the entries below; each comes with its answer.
- O=C(CCl)NCCc1c[nH]c2ccccc12 [compound 13]: 0.9
- O=C(CCl)N1CCN(S(=O)(=O)c2ccccc2F)CC1 [compound 10]: 1.4
- C=CC(=O)N(Cc1cccnc1)c1cc(C(F)(F)F)cc(C(F)(F)F)c1 [compound 31]: 1.2

Field: next molecule
// returns reported isoTOP-ABPP ratio O60610_C1227 for input O=C(CCl)N1CCN(CC(=O)N2CCOCC2)CC1 [compound 29]
1.6

---

- target of assay: UCHL3 C95 (P15374) (Homo sapiens, UniProt P15374)
- Sequence (P15374 whole entry): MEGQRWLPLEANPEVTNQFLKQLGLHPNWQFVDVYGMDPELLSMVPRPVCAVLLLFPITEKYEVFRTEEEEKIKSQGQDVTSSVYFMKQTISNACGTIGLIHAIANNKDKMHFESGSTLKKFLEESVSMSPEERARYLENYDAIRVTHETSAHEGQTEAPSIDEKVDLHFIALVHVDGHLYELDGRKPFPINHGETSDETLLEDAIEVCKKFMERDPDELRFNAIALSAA
- assay summary: Competitive isoTOP-ABPP, cell lysates
- Format: binding
- assay conditions: 500 μM, invitro, 231
Field: isoTOP-ABPP ratio, P15374_C95. Provide a value for each of the compounds that follow.
Answers are plain numbers.

- C=CC(=O)N(c1ccccc1)c1ccc(Br)cc1: 1.5

Can you give me isoTOP-ABPP ratio, P15374_C95 for all of these, one by one?
1. CNS(=O)(=O)C=Cc1ccc2c(ccn2Cc2ccccc2)c1
2. Cn1cc(S(=O)(=O)N2CCOCC2)cc1C(=O)NC(=O)CCl
3. O=C(CCl)N1CCN(S(=O)(=O)c2ccccc2F)CC1

[1.1, 0.8, 2.0]
